The origin of these recorded values is ChEMBL document CHEMBL5625267.

Tested on: HeLa
Assay: Antiproliferative activity against human HeLa cells assessed as cell viability at 80 uM incubated for 24 hrs by MTT assay relative to control
Format: functional
Settings: read-out: Activity
Threshold check on viability at 80 µM: strictly below 90% is 1.0; on or above 90% is 0.0.

INSERT INTO results (structuresmiles, classlabel) VALUES
  ('OC[C@H]1O[C@H](Oc2ccc(COC(=S)Nc3ccc(C(F)(F)F)cc3)cc2F)[C@@H](O)[C@@H](O)[C@@H]1O', 1.0),
  ('OC[C@H]1O[C@@H](Oc2ccc(COC(=S)Nc3ccc(C(F)(F)F)cc3)cc2F)[C@H](O)[C@@H](O)[C@H]1O', 0.0),
  ('OC[C@H]1O[C@@H](Oc2ccc(COC(=S)Nc3ccc(C(F)(F)F)cc3)cc2F)[C@H](O)[C@@H](O)[C@@H]1O', 0.0),
  ('OC[C@H]1O[C@H](Oc2ccc(COC(=S)Nc3ccc(C(F)(F)F)cc3)cc2Br)[C@@H](O)[C@@H](O)[C@@H]1O', 1.0),
  ('Cc1ccc(NC(=S)OCc2ccc(O[C@@H]3O[C@H](CO)[C@H](O)[C@H](O)[C@H]3O)cc2)cc1', 0.0);

###

Assay: Antiproliferative activity against mouse 3T3 cells assessed as cell viability at 80 uM incubated for 24 hrs by MTT assay relative to control
Assay type: toxicity, cell-based
Settings: NIH3T3 cells, read-out: Activity
Threshold check on viability at 24 h, 80 µM: strictly below 90% is Y; on or above 90% is N.

INSERT INTO assay_data (structuresmiles, classlabel) VALUES
  ('OC[C@H]1O[C@@H](Oc2ccc(COC(=S)Nc3ccc(C(F)(F)F)cc3)cc2)[C@H](O)[C@@H](O)[C@H]1O', 'Y'),
  ('OC[C@H]1O[C@H](Oc2ccc(COC(=S)Nc3ccc(C(F)(F)F)cc3)cc2)[C@@H](O)[C@@H](O)[C@@H]1O', 'N'),
  ('Cc1ccc(NC(=S)OCc2ccc(O[C@@H]3O[C@H](CO)[C@@H](O)[C@H](O)[C@H]3O)cc2)cc1', 'N');

###

Tested on: HepG2
Assay: Antiproliferative activity against human HepG2 cells assessed as cell viability at 80 uM incubated for 24 hrs by MTT assay relative to control
Type: functional
Conditions: read-out: Activity
The reader will find reported viability at 80 µM values listed item by item below.
observationType: viability at 80 µM (%)

INSERT INTO measurements (structuresmiles, measurementunit, resultvalue) VALUES
  ('OC[C@H]1O[C@H](Oc2ccc(COC(=S)Nc3ccc(C(F)(F)F)cc3)cc2)[C@@H](O)[C@@H](O)[C@@H]1O', '%', 90.2),
  ('OC[C@H]1O[C@H](Oc2ccc(COC(=S)Nc3ccc(C(F)(F)F)cc3)cc2Br)[C@@H](O)[C@@H](O)[C@@H]1O', '%', 37.6),
  ('OC[C@H]1O[C@@H](Oc2ccc(COC(=S)Nc3ccc(C(F)(F)F)cc3)cc2)[C@H](O)[C@@H](O)[C@@H]1O', '%', 91.2),
  ('Cc1ccc(NC(=S)OCc2ccc(O[C@@H]3O[C@H](CO)[C@@H](O)[C@H](O)[C@H]3O)cc2)cc1', '%', 85.3),
  ('OC[C@H]1O[C@@H](Oc2ccc(COC(=S)Nc3ccc(C(F)(F)F)cc3)cc2Br)[C@H](O)[C@@H](O)[C@@H]1O', '%', 61.8),
  ('OC[C@H]1O[C@@H](Oc2ccc(COC(=S)Nc3ccc(C(F)(F)F)cc3)cc2Br)[C@H](O)[C@@H](O)[C@H]1O', '%', 86.8),
  ('O=C(Nc1ccc(C(F)(F)F)cc1)OCc1ccc(O[C@H]2O[C@H](CO)[C@@H](O)[C@H](O)[C@@H]2O)c(Br)c1', '%', 51.6),
  ('OC[C@H]1O[C@H](Oc2ccc(COC(=S)Nc3ccc(C(F)(F)F)cc3)cc2F)[C@@H](O)[C@@H](O)[C@@H]1O', '%', 49),
  ('Cc1ccc(NC(=S)OCc2ccc(O[C@@H]3O[C@H](CO)[C@H](O)[C@H](O)[C@H]3O)cc2)cc1', '%', 96.9),
  ('OC[C@H]1O[C@@H](Oc2ccc(COC(=S)Nc3ccc(C(F)(F)F)cc3)cc2F)[C@H](O)[C@@H](O)[C@H]1O', '%', 86),
  ('OC[C@H]1O[C@@H](Oc2ccc(COC(=S)Nc3ccc(C(F)(F)F)cc3)cc2)[C@H](O)[C@@H](O)[C@H]1O', '%', 68.9),
  ('OC[C@H]1O[C@@H](Oc2ccc(COC(=S)Nc3ccc(C(F)(F)F)cc3)cc2F)[C@H](O)[C@@H](O)[C@@H]1O', '%', 86);

###

System: HepG2
Test: Induction of apoptosis in human HepG2 cells at 80 uM incubated for 24 hrs by annexin V-FITC/propidium iodide staining based flow cytometry analysis relative to control
Format: functional
Calls of active or inactive are those of the source. No cut-off for these calls is given here.
observationType: Activity

INSERT INTO assay_data (structuresmiles, observationtype, resultvalue) VALUES
  ('OC[C@H]1O[C@@H](Oc2ccc(COC(=S)Nc3ccc(C(F)(F)F)cc3)cc2Br)[C@H](O)[C@@H](O)[C@H]1O', 'Activity', '20.9%'),
  ('OC[C@H]1O[C@@H](Oc2ccc(COC(=S)Nc3ccc(C(F)(F)F)cc3)cc2Br)[C@H](O)[C@@H](O)[C@@H]1O', 'Activity', 'inactive'),
  ('OC[C@H]1O[C@@H](Oc2ccc(COC(=S)Nc3ccc(C(F)(F)F)cc3)cc2)[C@H](O)[C@@H](O)[C@H]1O', 'Activity', 'inactive'),
  ('OC[C@H]1O[C@H](Oc2ccc(COC(=S)Nc3ccc(C(F)(F)F)cc3)cc2)[C@@H](O)[C@@H](O)[C@@H]1O', 'Activity', 'inactive'),
  ('OC[C@H]1O[C@@H](Oc2ccc(COC(=S)Nc3ccc(C(F)(F)F)cc3)cc2F)[C@H](O)[C@@H](O)[C@@H]1O', 'Activity', 'inactive'),
  ('Cc1ccc(NC(=S)OCc2ccc(O[C@@H]3O[C@H](CO)[C@H](O)[C@H](O)[C@H]3O)cc2)cc1', 'Activity', 'inactive'),
  ('OC[C@H]1O[C@H](Oc2ccc(COC(=S)Nc3ccc(C(F)(F)F)cc3)cc2F)[C@@H](O)[C@@H](O)[C@@H]1O', 'Activity', '24.4%');

###

The reader will find reported viability at 80 µM values listed item by item below.
System: HeLa
Assay: Antiproliferative activity against human HeLa cells assessed as cell viability at 80 uM incubated for 24 hrs by MTT assay relative to control
Format: functional
Settings: read-out: Activity
observationType: viability at 80 µM (%)

INSERT INTO assay_data (structuresmiles, experimentaltarget, observationtype, measurementunit, resultvalue) VALUES
  ('Cc1ccc(NC(=S)OCc2ccc(O[C@@H]3O[C@H](CO)[C@@H](O)[C@H](O)[C@H]3O)cc2)cc1', 'HeLa', 'viability at 80 µM', '%', 90.8),
  ('OC[C@H]1O[C@H](Oc2ccc(COC(=S)Nc3ccc(C(F)(F)F)cc3)cc2)[C@@H](O)[C@@H](O)[C@@H]1O', 'HeLa', 'viability at 80 µM', '%', 95),
  ('OC[C@H]1O[C@@H](Oc2ccc(COC(=S)Nc3ccc(C(F)(F)F)cc3)cc2)[C@H](O)[C@@H](O)[C@H]1O', 'HeLa', 'viability at 80 µM', '%', 82.1),
  ('OC[C@H]1O[C@@H](Oc2ccc(COC(=S)Nc3ccc(C(F)(F)F)cc3)cc2)[C@H](O)[C@@H](O)[C@@H]1O', 'HeLa', 'viability at 80 µM', '%', 92);

###

The reader will find reported viability at 24 h, 50 µM values listed item by item below.
Experiment: Antiproliferative activity against mouse 3T3 cells assessed as cell viability at 50 uM incubated for 24 hrs by MTT assay relative to control
Assay type: toxicity, cell-based
Details: NIH3T3 cells, read-out: Activity
observationType: viability at 24 h, 50 µM (%)

INSERT INTO results (structuresmiles, measurementunit, resultvalue) VALUES
  ('OC[C@H]1O[C@H](Oc2ccc(COC(=S)Nc3ccc(C(F)(F)F)cc3)cc2F)[C@@H](O)[C@@H](O)[C@@H]1O', '%', 86.3),
  ('OC[C@H]1O[C@@H](Oc2ccc(COC(=S)Nc3ccc(C(F)(F)F)cc3)cc2)[C@H](O)[C@@H](O)[C@H]1O', '%', 89.8),
  ('OC[C@H]1O[C@@H](Oc2ccc(COC(=S)Nc3ccc(C(F)(F)F)cc3)cc2)[C@H](O)[C@@H](O)[C@@H]1O', '%', 88.1),
  ('OC[C@H]1O[C@@H](Oc2ccc(COC(=S)Nc3ccc(C(F)(F)F)cc3)cc2Br)[C@H](O)[C@@H](O)[C@H]1O', '%', 86.8),
  ('OC[C@H]1O[C@@H](Oc2ccc(COC(=S)Nc3ccc(C(F)(F)F)cc3)cc2Br)[C@H](O)[C@@H](O)[C@@H]1O', '%', 93.5),
  ('OC[C@H]1O[C@@H](Oc2ccc(COC(=S)Nc3ccc(C(F)(F)F)cc3)cc2F)[C@H](O)[C@@H](O)[C@H]1O', '%', 97.3),
  ('Cc1ccc(NC(=S)OCc2ccc(O[C@@H]3O[C@H](CO)[C@@H](O)[C@H](O)[C@H]3O)cc2)cc1', '%', 102),
  ('OC[C@H]1O[C@H](Oc2ccc(COC(=S)Nc3ccc(C(F)(F)F)cc3)cc2Br)[C@@H](O)[C@@H](O)[C@@H]1O', '%', 83.6),
  ('Cc1ccc(NC(=S)OCc2ccc(O[C@@H]3O[C@H](CO)[C@H](O)[C@H](O)[C@H]3O)cc2)cc1', '%', 110),
  ('OC[C@H]1O[C@H](Oc2ccc(COC(=S)Nc3ccc(C(F)(F)F)cc3)cc2)[C@@H](O)[C@@H](O)[C@@H]1O', '%', 94.5),
  ('OC[C@H]1O[C@@H](Oc2ccc(COC(=S)Nc3ccc(C(F)(F)F)cc3)cc2F)[C@H](O)[C@@H](O)[C@@H]1O', '%', 88.9);
